Below, each entry is listed with its recorded inhibition at 10 µM.
Target: human PDE9A2 (Homo sapiens, UniProt O76083)
Construct: made in house; host or cells: Sf9 insect cells (infected); crude lysate used as enzyme source
Sequence (O76083 1-533 isoform O76083-2): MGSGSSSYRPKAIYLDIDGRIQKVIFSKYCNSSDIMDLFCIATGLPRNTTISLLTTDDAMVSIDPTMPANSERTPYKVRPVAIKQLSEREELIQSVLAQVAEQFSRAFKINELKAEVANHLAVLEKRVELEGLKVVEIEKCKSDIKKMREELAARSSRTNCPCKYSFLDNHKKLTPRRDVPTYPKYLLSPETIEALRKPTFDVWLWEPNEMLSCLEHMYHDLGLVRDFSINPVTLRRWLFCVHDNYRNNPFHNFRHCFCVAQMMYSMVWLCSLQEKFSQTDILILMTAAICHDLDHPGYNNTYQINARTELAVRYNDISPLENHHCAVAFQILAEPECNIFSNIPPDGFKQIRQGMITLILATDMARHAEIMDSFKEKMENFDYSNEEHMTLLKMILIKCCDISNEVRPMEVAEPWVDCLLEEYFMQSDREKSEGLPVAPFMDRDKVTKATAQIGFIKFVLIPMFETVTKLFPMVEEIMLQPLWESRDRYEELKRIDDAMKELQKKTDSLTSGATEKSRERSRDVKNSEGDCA
Experiment: PDE9A2 enzymatic activity assay (scintillation proximity assay, SPA)
Format: biochemical
Details: read-out: % inhibition of PDE9A2 (at 10 micromolar concentration), 10 micromolar concentration; values above 100% adjusted to 100%
Response body: numeric value in %, unit text excluded.

Some solved cases for reference:
{"MOLECULE": "CC(C)(C)OC(=O)N1CCCC(n2ncc3c(=O)[nH]c(Cc4ccccc4OC(F)(F)F)nc32)C1 (racemic)", "inhibition at 10 µM, %": 99}
{"MOLECULE": "O=C(c1ccccc1)N1CCCC(n2ncc3c(=O)[nH]c(CC4CCC4)nc32)C1 (racemic)", "inhibition at 10 µM, %": 96}
{"MOLECULE": "CCC(CC)Cc1nc2c(cnn2C2CCOC(C)C2)c(=O)[nH]1 (racemic)", "inhibition at 10 µM, %": 95}
{"MOLECULE": "O=c1[nH]c(Cc2ccccc2)nc2c1cnn2C1CCNC1 (racemic)", "inhibition at 10 µM, %": 88}
{"MOLECULE": "O=c1[nH]c(Cc2ccccc2C(F)(F)F)nc2c1cnn2C1CCCCO1 (racemic)", "inhibition at 10 µM, %": 86}

Consider the molecule CCC(Cc1nc2c(cnn2C2CCN(C)C2)c(=O)[nH]1)C(F)(F)F (mixture of isomers) . State its measured inhibition at 10 µM.
86

Give a short answer stating reported inhibition at 10 µM for CCOc1ccccc1Cc1nc2c(cnn2C2CCOC2)c(=O)[nH]1 (racemic) .
100

Entry CC(C)(C)OC(=O)N1CCCC(n2ncc3c(=O)[nH]c(Cc4ccccn4)nc32)C1 (racemic) needs its inhibition at 10 µM filled in; supply it.
98
